Field pIC50: reported value for UniProt P22607; entries drawn from several documents.
pIC50: −log10 of the molar value.
Recorded endpoint: pIC50

Solved cases below.
> print(dat)
                                smiles.text  experimental.target  meas.value
1  CNC(=O)c1cc(CCc2cnc(Nc3ccc(N4C[C@@H](C)N[C@@H](C)C4)c(F)c3)nc2)c(Cl)c(OC)c1       UniProt P22607        8.10
2  CONC(=O)c1cc(CCc2cnc(Nc3ccc(F)cc3)nc2)cc(OC)c1       UniProt P22607        7.36
3  CNC(=O)c1cc(CCc2cnc(Nc3cnn(C4CN(C)C4)c3)nc2)c(F)c(OC)c1       UniProt P22607        7.82
4  CC(C)(C)[C@H]1O[C@@H](c2ccncc2NC(=O)c2nc(-c3ccccc3)cnc2N)C[C@H](N)[C@@H]1O       UniProt P22607        6.15
5  CNC(=O)c1cc(CCc2cnc(Nc3cnc4ccnn4c3)nc2)c(F)c(OC)c1       UniProt P22607        6.67

(1) CCN1CCN(c2ccc(Nc3ncc(CCc4cc(C(=O)NC)cc(OC)c4Cl)cn3)cc2)CC1
(2) COc1ccc(-c2cccc3c2/C(=C/c2[nH]c(C)c(C(=O)N4C[C@@H](C)N[C@@H](C)C4)c2C)C(=O)N3)cc1
(3) COC(=O)c1ccc2c(c1)NC(=O)/C2=C(\Nc1ccc2c(c1)CCN2C(=O)CN1CCN(C)CC1)c1ccccc1
(4) CCN1CCN(c2ccc(Nc3ncc(CCc4cc(C(=O)NOC)cc(OC)c4C)cn3)cc2)CC1
# sort list by recorded pIC50, greatest to least List the labels according to the requested ordering.
4, 1, 3, 2

---

Field IC50: reported value for Fibroblast growth factor receptor 3 (Homo sapiens, UniProt P22607); entries drawn from several documents.

Solved cases below.
> print(dat)
                                    compound    meas.value
 1  COc1cc(OC)c(F)c(N2Cc3cnc(N)c(/C=C/c4ccccc4)c3N(C)C2=O)c1F      < 100 nM
 2  COCCOc1cc(NC(=O)N2CCCc3ccc(C=O)nc32)ncc1C#N    > 10000 nM
 3  COc1cc(OC)c(F)c(N2Cc3cnc(NC4CCN(C)CC4)cc3C3(CC3)C2=O)c1F      < 100 nM
 4  CC(C)n1cnc2cnc(NC(=O)N3CCCc4cc(CN5CCN(C)CC5=O)c(C=O)nc43)cc21    > 10000 nM
 5  CCNC(=O)c1cc(CCc2cnc(Nc3cnn(C)c3)nc2)c(Cl)c(OC)c1         22 nM
 6  COc1nn2c(-c3cccc(CC#N)c3)cnc2cc1-c1cnn(C)c1  10 to 100 nM
 7  CN1CCN(CCn2cc(-c3cnc4ccn5c(C(N)=O)c(-c6c(Cl)cccc6Cl)nc5c4c3)cn2)CC1   0.1 to 1 nM
 8  NC(=O)c1c(-c2c(Cl)cccc2Cl)nc2c3cc(-c4ccc(=O)[nH]c4)cnc3ccn12   0.1 to 1 nM
 9  COc1cc(OC)c(Cl)c(-c2ncc3c(-c4ccc5c(c4)CN([C@H]4CC[C@H](O)CC4)C5=O)n[nH]c3n2)c1Cl      < 100 nM
10  C=CC(=O)N1CCC(C(=O)N2CCC(n3cc(-c4cnc5ccc(Nc6cc(OC)cc(OC)c6)cc5n4)cn3)CC2)CC1         10 nM

I have this compound here, CN(C)CCOc1cc(NC(=O)N2CCCc3ccc(C=O)nc32)ncc1C#N , and I need its recorded IC50.
> 10000 nM

I have this compound here, Cn1cc(-c2cn3ncc(-c4cccc5[nH]ncc45)c3nc2O[C@H]2CCOC2)cn1 , and I need its recorded IC50.
< 10 nM

I have this compound here, COc1cc(OC)c(F)c(-c2ncc3c(-c4ccc5ncccc5c4)n[nH]c3n2)c1F , and I need its recorded IC50.
< 100 nM
